Measured apparent KD of MS2 coat protein, listed per entry.
# Tested on: MS2 coat protein
# ASSAY NOTES: apparent KD of MS2 coat protein; designed switch direction (-1 OFF switch, 1 ON switch): 1; higher = weaker reporter binding
# RECORDED CONDITIONS: input ligand: microRNA oligo, concentration not stated

# PRIMARY SEQUENCE, apparent KD of MS2 coat protein
records = [
    ("UUAAUUUACUGAGGAUAUCGUGUCGACUGAGUUGACAUGAGGAUCACCCAUGUGAGAAGUGGUAUCGAGAAGGCAGUAUUCAUA [JR_SSNG2_Sub023] (Eterna round: R96, puzzle: Same State NG 2)", "28.9 nM"),
    ("GCACUCCUAGGAGCUGCGACAUGAGGAUCACCCAUGUAAUCACAGGAUAUGCGAGUCCGAAUUUUGCAGAAGGGUGAUAAGAAC [Biesanarre] (Eterna round: R96, puzzle: Same State NG 3)", "52.3 nM"),
    ("AGGAGACAUGAGGAUCACCCAUGUACUUCAUAAGGAGAGAACGAGGAUAUGUAGAGAGAGAGGGAACAGAAGGUGUGAGAGGAA [Default title] (Eterna round: R96, puzzle: Same State NG 3)", "16.2 nM"),
    ("GAGAGAGGGCGAGGAUAUUCGGUGAUAAUGAUGGAAGAAGGCGCUGACAUGAGGAUCACCCAUGUGGGAAUAAUCCAGAGAGAG [Parity 15 - Jieux - Same State NG 1] (Eterna round: R96, puzzle: Same State NG 1)", "130 nM"),
]

Okay, next one:
Challenge: Request body: readout apparent KD of MS2 coat protein, system MS2 coat protein, query CUGAGAUGUCAAGGAUAUCACGUCGAUUAGACGUGAGAAGGUGAUCAGUACAUGAGGAUCACCCAUGUGUUACAUGGAACUCAG [Brourd's SSNG1/1-A2 mod 9] (Eterna round: R96, puzzle: Same State NG 1) . Return the value.
Response given: 102 nM
